In this section we review reported IC50 values for a set of compounds.
# Tested on: HT-29
# protocol notes: Growth inhibition of human HT-29 cells after 72 hrs by MTT assay
# Assay type: functional, cell-based
# study conditions: HT-29, 72 h
reported property: IC50 (nM)

{"substance smiles": "C/C=C1/CN(C)[C@H]2Cc3c([nH]c4ccccc34)[C@@H](c3c(OC)ccc4[nH]c5c(c34)CCN3C[C@H]4C[C@H](CC)[C@H]3[C@H]5C4)C[C@H]1[C@@H]2C(=O)OC", "reported property": "IC50", "units text": "nM", "value reported": 1900}
{"substance smiles": "C/C=C1/CN(C)[C@H]2Cc3c([nH]c4ccccc34)[C@@H](c3cc4c(cc3OC)[C@@]3(O)CCN5C[C@H]6C[C@H](CC)[C@H]5[C@@H](C6)C3=N4)C[C@H]1[C@@H]2C(=O)OC", "reported property": "IC50", "units text": "nM", "value reported": 7200}
{"substance smiles": "C/C=C1/CN(C)[C@H]2Cc3c([nH]c4ccccc34)[C@@H](c3cc4[nH]c5c(c4cc3OC)CCN3C[C@H]4C[C@H]([C@@H](C)O)[C@H]3[C@H]5C4)C[C@H]1[C@@H]2C(=O)OC", "reported property": "IC50", "units text": "nM", "value reported": 1200}
{"substance smiles": "CC[C@@H]1CN(C)[C@H]2Cc3c([nH]c4ccccc34)[C@@H](c3cc4[nH]c5c(c4cc3OC)CCN3C[C@H]4C[C@H]([C@@H](C)O)[C@H]3[C@H]5C4)C[C@H]1[C@@H]2C(=O)OC", "reported property": "IC50", "units text": "nM", "value reported": 2400}
{"substance smiles": "CC[C@@H]1CN(C)[C@H]2Cc3c([nH]c4ccccc34)[C@@H](c3cc4c(cc3OC)C(=O)[C@@]3(CCN5C[C@H]6C[C@H](CC)[C@H]5[C@H]3C6)N4)C[C@H]1[C@@H]2C(=O)OC", "reported property": "IC50", "units text": "nM", "value reported": 1800}
{"substance smiles": "C/C=C1/CN(C)[C@H]2Cc3c([nH]c4ccccc34)[C@@H](c3cc4[nH]c5c(c4cc3OC)CCN3C[C@H]4C[C@H](CC)[C@H]3[C@H]5C4)C[C@H]1[C@@H]2C(=O)OC", "reported property": "IC50", "units text": "nM", "value reported": 930}

###

# Tested on: MDA-MB-231
# protocol notes: Growth inhibition of human MDA-MB-231 cells after 72 hrs by MTT assay
# Assay type: functional, cell-based
# study conditions: MDA-MB-231, 72 h
pIC50: −log10 of the molar value.
In this section we review reported pIC50 values for a set of compounds.

{"substance smiles": "C/C=C1/CN(C)[C@H]2Cc3c([nH]c4ccccc34)[C@@H](c3cc4[nH]c5c(c4cc3OC)CCN3C[C@H]4C[C@H]([C@@H](C)O)[C@H]3[C@H]5C4)C[C@H]1[C@@H]2C(=O)OC", "readout qualifier": "=", "pIC50": 5.41}
{"substance smiles": "C/C=C1/CN(C)[C@H]2Cc3c([nH]c4ccccc34)[C@@H](c3cc4c(cc3OC)C(=O)[C@@]3(CCN5C[C@H]6C[C@H](CC)[C@H]5[C@H]3C6)N4)C[C@H]1[C@@H]2C(=O)OC", "readout qualifier": "=", "pIC50": 5.11}
{"substance smiles": "C/C=C1/CN(C)[C@H]2Cc3c([nH]c4ccccc34)[C@@H](c3cc4[nH]c5c(c4cc3OC)CCN3C[C@H]4C[C@H](CC)[C@H]3[C@H]5C4)C[C@H]1[C@@H]2C(=O)OC", "readout qualifier": "=", "pIC50": 5.60}
{"substance smiles": "C/C=C1/CN(C)[C@H]2Cc3c([nH]c4ccccc34)[C@@H](c3cc4c(cc3OC)[C@@]3(O)CCN5C[C@H]6C[C@H](CC)[C@H]5[C@@H](C6)C3=N4)C[C@H]1[C@@H]2C(=O)OC", "readout qualifier": "<", "pIC50": 5.00}

###

# Test system: HT-29
# protocol notes: Growth inhibition of human HT-29 cells after 72 hrs by MTT assay
# Assay type: functional, cell-based
# study conditions: HT-29, 72 h
pIC50: −log10 of the molar value.

{"substance smiles": "C/C=C1/CN(C)[C@H]2Cc3c([nH]c4ccccc34)[C@@H](c3cc4c(cc3OC)C(=O)[C@@]3(CCN5C[C@H]6C[C@H](CC)[C@H]5[C@H]3C6)N4)C[C@H]1[C@@H]2C(=O)OC", "target or system": "HT-29", "pIC50": 5.54}
{"substance smiles": "CC[C@@H]1CN(C)[C@H]2Cc3c([nH]c4ccccc34)[C@@H](c3cc4[nH]c5c(c4cc3OC)CCN3C[C@H]4C[C@H](CC)[C@H]3[C@H]5C4)C[C@H]1[C@@H]2C(=O)OC", "target or system": "HT-29", "pIC50": 6.04}
{"substance smiles": "C/C=C1/CN2CC[C@]34C(=C(C=O)C1C[C@H]23)Nc1cc([C@H]2C[C@@H]3/C(=C\\C)CN(C)[C@@H](Cc5c2[nH]c2ccccc52)[C@H]3C(=O)OC)ccc14", "target or system": "HT-29", "pIC50": 5.89}

###

In this section we review reported pIC50 values for a set of molecules.
# System: MDA-MB-231
# protocol notes: Growth inhibition of human MDA-MB-231 cells after 72 hrs by MTT assay
# Assay type: functional, cell-based
# study conditions: MDA-MB-231, 72 h
pIC50: −log10 of the molar value.

{"substance smiles": "CC[C@@H]1CN(C)[C@H]2Cc3c([nH]c4ccccc34)[C@@H](c3cc4c(cc3OC)C(=O)[C@@]3(CCN5C[C@H]6C[C@H](CC)[C@H]5[C@H]3C6)N4)C[C@H]1[C@@H]2C(=O)OC", "pIC50": 5.48}
{"substance smiles": "C/C=C1/CN2CC[C@]34C(=C(C=O)C1C[C@H]23)Nc1cc([C@H]2C[C@@H]3/C(=C\\C)CN(C)[C@@H](Cc5c2[nH]c2ccccc52)[C@H]3C(=O)OC)ccc14", "pIC50": 5.35}
{"substance smiles": "CC[C@@H]1CN(C)[C@H]2Cc3c([nH]c4ccccc34)[C@@H](c3cc4[nH]c5c(c4cc3OC)CCN3C[C@H]4C[C@H]([C@@H](C)O)[C@H]3[C@H]5C4)C[C@H]1[C@@H]2C(=O)OC", "pIC50": 5.44}
{"substance smiles": "CC[C@@H]1CN(C)[C@H]2Cc3c([nH]c4ccccc34)[C@@H](c3cc4[nH]c5c(c4cc3OC)CCN3C[C@H]4C[C@H](CC)[C@H]3[C@H]5C4)C[C@H]1[C@@H]2C(=O)OC", "pIC50": 5.55}
{"substance smiles": "C/C=C1/CN(C)[C@H]2Cc3c([nH]c4ccccc34)[C@@H](c3c(OC)ccc4[nH]c5c(c34)CCN3C[C@H]4C[C@H](CC)[C@H]3[C@H]5C4)C[C@H]1[C@@H]2C(=O)OC", "pIC50": 5.34}

###

# System: LNCaP
# protocol notes: Growth inhibition of human LNCAP cells after 72 hrs by MTT assay
# Assay type: functional, cell-based
pIC50: −log10 of the molar value.
reported property: pIC50

{"substance smiles": "CC[C@@H]1CN(C)[C@H]2Cc3c([nH]c4ccccc34)[C@@H](c3cc4[nH]c5c(c4cc3OC)CCN3C[C@H]4C[C@H]([C@@H](C)O)[C@H]3[C@H]5C4)C[C@H]1[C@@H]2C(=O)OC", "target or system": "LNCaP", "reported property": "pIC50", "value reported": "< 5.00"}
{"substance smiles": "C/C=C1/CN(C)[C@H]2Cc3c([nH]c4ccccc34)[C@@H](c3c(OC)ccc4[nH]c5c(c34)CCN3C[C@H]4C[C@H](CC)[C@H]3[C@H]5C4)C[C@H]1[C@@H]2C(=O)OC", "target or system": "LNCaP", "reported property": "pIC50", "value reported": "< 5.00"}
{"substance smiles": "C/C=C1/CN(C)[C@H]2Cc3c([nH]c4ccccc34)[C@@H](c3cc4c(cc3OC)C(=O)[C@@]3(CCN5C[C@H]6C[C@H](CC)[C@H]5[C@H]3C6)N4)C[C@H]1[C@@H]2C(=O)OC", "target or system": "LNCaP", "reported property": "pIC50", "value reported": 5.00}
{"substance smiles": "CC[C@@H]1CN(C)[C@H]2Cc3c([nH]c4ccccc34)[C@@H](c3cc4[nH]c5c(c4cc3OC)CCN3C[C@H]4C[C@H](CC)[C@H]3[C@H]5C4)C[C@H]1[C@@H]2C(=O)OC", "target or system": "LNCaP", "reported property": "pIC50", "value reported": "< 5.00"}
{"substance smiles": "C/C=C1/CN2CC[C@]34C(=C(C=O)C1C[C@H]23)Nc1cc([C@H]2C[C@@H]3/C(=C\\C)CN(C)[C@@H](Cc5c2[nH]c2ccccc52)[C@H]3C(=O)OC)ccc14", "target or system": "LNCaP", "reported property": "pIC50", "value reported": "< 5.00"}
